experiment: chemical genetic growth profiling, strain panel (AID 1159580);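 note: tested at 20 µM; growth read once vehicle control cultures reached saturation at 30 °C; lower values mean less growth of the strain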; conditions: S. cerevisiae deletion strains, growth OD, locus YLR357W, strain rsc2
Out of some 5,500 compounds screened, about 2,000 (36%) were called active. About 18% were inconclusive and are not listed. Cut-off read from the data, not from the text of the source: active = normalized growth mostly below about 0.91 (no sharp cut-off); inconclusive = no clear call, values can overlap the other calls; inactive = mostly above about 0.92. Some of the results follow.
Labels: active, inactive

INSERT INTO measurements (compound, assigned_class) VALUES
  ('CN1C[C@H](C(=O)N[C@]2(C)O[C@@]3(O)[C@@H]4CCCN4C(=O)[C@H](Cc4ccccc4)N3C2=O)C[C@@H]2c3cccc4[nH]cc(c34)C[C@H]21', 'inactive'),
  ('CCCCCc1c2c(cc(O)c1C(=O)O)OC(=O)c1c(cc(OC)cc1C(=O)CCCC)O2', 'inactive'),
  ('O=C(O[C@@H]1Cc2c(O)cc(O)cc2O[C@@H]1c1cc(O)c(=O)c2c(O)c(O)cc([C@H]3Oc4cc(O)cc(O)c4C[C@H]3O)c2c1)c1cc(O)c(O)c(O)c1', 'active'),
  ('CCC(c1ccc(O)cc1)C(CC)c1ccc(O)cc1 (configuration not stated)', 'inactive'),
  ('O=C(O[C@@H]1Cc2c(O)cc(O)cc2O[C@@H]1c1cc(O)c(=O)c2c(O)c(O)cc([C@H]3Oc4cc(O)cc(O)c4C[C@H]3OC(=O)c3cc(O)c(O)c(O)c3)c2c1)c1cc(O)c(O)c(O)c1', 'active'),
  ('CCC(N)C(O)c1ccc(O)c(O)c1 (configuration not stated)', 'inactive'),
  ('CC(=O)[C@@]1(O)CCC2C3C[C@H](C)C4=CC(=O)C=CC4(C)[C@@]3(F)[C@@H](O)C[C@@]21C (some centres not stated)', 'inactive');

====

assay: chemical genetic growth profiling, strain panel (AID 1159580);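 note: tested at 20 µM; growth read once vehicle control cultures reached saturation at 30 °C; lower values mean less growth of the strain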; settings: S. cerevisiae deletion strains, growth OD, locus YMR307W, strain GAS1
Hit rate of the full screen: of about 5,500 compounds, about 2,000 (36%) were called active. About 18% were inconclusive and are not listed. No stated cut-off is given here; in the data, active means normalized growth mostly below about 0.91 (no sharp cut-off); inconclusive means no clear call, values can overlap the other calls; inactive means mostly above about 0.92. This is one part of the list.
Outcome codes: T = active, F = inactive

INSERT INTO results (compound, assigned_class) VALUES
  ('Cc1cc(Br)c(NC(=O)C(Cl)(Cl)Cl)c(Br)c1', 'T'),
  ('O=C(O[C@@H]1Cc2c(O)cc(O)cc2O[C@@H]1c1cc(O)c(=O)c2c(O)c(O)cc([C@H]3Oc4cc(O)cc(O)c4C[C@H]3O)c2c1)c1cc(O)c(O)c(O)c1', 'T'),
  ('CCC1OC(=O)[C@H](C)C(=O)[C@H](C)[C@@H](OC2O[C@H](C)C[C@H](N(C)C)[C@H]2O)[C@](C)(OC)C2(CCCn3cnc(-c4cccnc4)c3)C[C@@H](C)C(=O)[C@H](C)[C@H]3N(C2)C(=O)O[C@]13C (stereo not given in full)', 'F'),
  ('O=c1c(O)c(-c2ccc(O)cc2O)oc2cc(O)cc(O)c12', 'F'),
  ('COc1ccc(-c2cc(=O)c3c(O)cc(O[C@@H]4O[C@H](CO[C@H]5O[C@H](C)[C@@H](O)[C@H](O)[C@@H]5O)[C@@H](O)[C@H](O)[C@H]4O)cc3o2)cc1O', 'F'),
  ('CCN(CC)C(=O)N[C@H]1C=C2c3cccc4[nH]cc(c34)C[C@H]2N(C)C1', 'F'),
  ('CCCCCc1c2c(cc(O)c1C(=O)O)OC(=O)c1c(cc(OC)cc1C(=O)CCCC)O2', 'F'),
  ('CNC(C)C(O)c1ccccc1 (stereo not given)', 'F'),
  ('C[C@@H]1O[C@@H](OC[C@H]2OC(Oc3c(-c4ccc(O)c(O)c4)oc4cc(O)cc(O)c4c3=O)[C@H](O)[C@@H](O)[C@@H]2O)[C@H](O)[C@H](O)[C@H]1O (stereo not given in full)', 'F'),
  ('COC(=O)C[C@H]1C(C)(C)C2(Cl)O[C@@]34CC2C(=O)[C@]1(C)C3CC[C@]1(C)C4=CC(=O)O[C@H]1c1ccoc1 (stereo not given in full)', 'F'),
  ('OC[C@H]1O[C@@H](n2cnc3c(N[C@H]4CC5CCC4C5)ncnc32)[C@H](O)[C@@H]1O (stereo not given in full)', 'F'),
  ('Oc1cc2c(cc1O)C1c3ccc(O)c(O)c3OCC1(O)C2 (stereo not given)', 'F'),
  ('CCOCN(C(=O)CCl)c1c(C)cccc1CC', 'F'),
  ('O=C(O[C@@H]1Cc2c(O)cc(O)cc2O[C@@H]1c1cc(O)c(=O)c2c(O)c(O)cc([C@H]3Oc4cc(O)cc(O)c4C[C@H]3OC(=O)c3cc(O)c(O)c(O)c3)c2c1)c1cc(O)c(O)c(O)c1', 'T'),
  ('CCOC(=O)C1=C(N)Oc2ccc(Br)cc2C1C(C#N)C(=O)OCC (stereo not given)', 'T'),
  ('COCCCNC(=S)N/N=C\c1cccc(OC)c1O', 'F'),
  ('CC[C@H](NC(=O)c1c(C)c(-c2ccccc2)nc2ccccc12)c1ccccc1', 'F'),
  ('CCCCCCC(C)OC(=O)COc1ccc(Cl)cc1Cl (stereo not given)', 'F'),
  ('COc1cc(O)c2c(=O)c(O)c(-c3ccc(O)c(O)c3)oc2c1', 'F'),
  ('C[C@@H]([C@H](O)c1ccccc1)N(C)C', 'F'),
  ('Oc1ccc2c(c1)OCC1(O)Cc3cc(O)c(O)cc3C21 (stereo not given)', 'F'),
  ('COc1ccc(-c2oc3c(CC=C(C)C)c(O[C@@H]4O[C@H](CO)[C@@H](O)[C@H](O)[C@H]4O)cc(O)c3c(=O)c2O[C@@H]2O[C@@H](C)[C@H](O)[C@@H](O)[C@H]2O)cc1', 'F'),
  ('CC(=O)OC(C)C[N+](C)(C)C (stereo not given)', 'F'),
  ('O=C1C=C2C(=CCOC2O)O1 (stereo not given)', 'T'),
  ('CC1=NN=C(c2ccc(N)cc2)c2cc3c(cc2C1)OCO3', 'F'),
  ('COC(=O)[C@@H]1[C@H]2C[C@H]3c4[nH]c5ccccc5c4CCN3C[C@@H]2CC[C@@H]1O', 'F'),
  ('CC(C)(C)c1cc(/C=C(\C#N)C(N)=S)cc(C(C)(C)C)c1O', 'F'),
  ('C[C@@H]1O[C@@H](OC[C@H]2OC(Oc3c(-c4ccc(OCCO)c(OCCO)c4)oc4cc(OCCO)cc(O)c4c3=O)[C@H](O)[C@@H](O)[C@@H]2O)[C@H](O)[C@H](O)[C@H]1O (stereo not given in full)', 'F'),
  ('CC[n+]1c(-c2ccccc2)c2cc(N)ccc2c2ccc(N)cc21', 'F'),
  ('COc1cc(OC)c2c(=O)c(OC)c(-c3ccc(OC)c(OC)c3)oc2c1', 'F'),
  ('C[N+](C)(C)CC(O)CC(=O)O (stereo not given)', 'F'),
  ('CCOC(=O)c1sc(S(C)(=O)=O)c2c1CCCC2O (stereo not given)', 'F'),
  ('COc1ccc(-c2cc(=O)c3c(O)cc(O[C@H]4O[C@H](CO[C@@H]5O[C@@H](C)[C@H](O)[C@@H](O)[C@H]5O)[C@@H](O)[C@H](O)[C@H]4O)cc3o2)cc1', 'F'),
  ('S=C(NC1CCCCC1)N1CCC(c2cnc[nH]2)CC1', 'F'),
  ('CN(C)C=Nc1nnc(SCc2ccc(C(=O)Oc3ccc(F)cc3F)cc2)s1', 'F');

src = PubChem BioAssay AID1159580
